readout-label: melting point

For reference, reported melting point for O=C(NCC1(O)CCCCCC1)c1cc(-c2ccccc2C(=O)O)ccc1Cl stands at 113 to 116 °C

For reference, reported melting point for COC(=O)c1cc(Br)c2cc(Cc3ccc(F)cc3)cnc2c1O stands at 152 °C

For reference, reported melting point for COc1ccc(Nc2ncccc2NS(=O)(=O)c2ccc(OC)cc2)cc1 stands at 145 to 147 °C

For reference, reported melting point for N=C(NO)c1cnc(Cl)c(Cl)c1 stands at 182 to 184 °C

For reference, reported melting point for c1ccc(-c2ccc(CCOc3ncnc4ccccc34)cc2)cc1 stands at 72 to 74 °C

For reference, reported melting point for CC(=O)c1ccc(NC(=O)N2CCC3(CC2)CN(S(N)(=O)=O)c2ccccc23)cc1 stands at 233 to 236 °C

For reference, reported melting point for COc1ccc2c(c1)-c1nc(-c3ccccc3C)c(N)n1CC2 stands at 160 °C

For reference, reported melting point for Cc1ccc(Cl)c(Nc2ccccc2-c2n[nH]c(=S)o2)c1Cl stands at 257 to 259 °C

For reference, reported melting point for NCc1ccc(C2CCN(c3c(F)c(N)c4c(=O)c(C(=O)O)cn(C5CC5)c4c3F)C2)cc1 (stereo not given) stands at 225 to 227 °C

For reference, reported melting point for CC(=O)Oc1ccc(C(=O)O)cc1I stands at 173 to 174 °C

###

readout-label: melting point

For reference, reported melting point for O=C(NCCO)c1cccc(-c2cccn3cc(Cc4cccc(C(F)(F)F)c4)nc23)c1 stands at 136 to 137 °C

For reference, reported melting point for Cc1c(-c2ccccc2)on(CC(O)CCl)c1=O (stereo unspecified) stands at 82 to 83 °C

For reference, reported melting point for CN1CC2=C(n3cnc(C#CC(C)(C)O)c3C1)S(=O)C=C2 (stereo unspecified) stands at 180 to 181 °C

For reference, reported melting point for CCOC(=O)Nn1cccc1C(=O)c1ccccc1 stands at 68 to 70 °C

For reference, reported melting point for COC(C)(C)C(Cl)=NO stands at 95 °C

For reference, reported melting point for CC(=O)NC12Oc3cc(C(C)C)ccc3C1(O)C(=O)c1c(N)cccc12 (stereo unspecified) stands at 278 to 280 °C

For reference, reported melting point for CCCOc1cc2ccccc2c2c(=O)c(-c3ccc(OC)cc3)c(C)[nH]c12 stands at 204 to 206 °C

For reference, reported melting point for OC(Cn1ccnc1)c1ccc2ccccc2c1 (stereo unspecified) stands at 156 to 160 °C

For reference, reported melting point for CC1CCc2c(ccc(F)c2-n2ccnc2)N1 (stereo unspecified) stands at 162 to 164 °C

For reference, reported melting point for Fc1cc(F)cc(Cn2c(S)nc3ccccc32)c1 stands at 179 to 180 °C

For reference, reported melting point for CCOC(=O)C(=CC=C(SC)C(=O)c1ccc(N2CCCCC2)cc1)N(C)C stands at 113 °C

For reference, reported melting point for Nc1ccc(CCN2CCC(Nc3nc4ccccc4n3Cc3ccc(F)cc3)CC2)cc1 stands at 195 °C

For reference, reported melting point for CC(=O)n1cc(Cl)c(-c2ccccc2Cl)c1 stands at 82 to 84 °C

For reference, reported melting point for CCC(OC)c1cccc2nc3n(c12)CCCN3c1ccc(Cl)cc1Cl (stereo unspecified) stands at 151 to 153 °C

For reference, reported melting point for COc1ccc(Cl)cc1S(=O)(=O)N1C2CCC1CN(CC(=O)Nc1ccccc1C)C2 stands at 180 to 181 °C

For reference, reported melting point for CN1CC(c2cc(CCc3ccc(F)cc3)ccn2)=C(O)C1=O stands at 167 to 168 °C

For reference, reported melting point for CN(C)C(=O)Cc1ccc(CNC(=O)[C@@H](CCCNC(N)=N[N+](=O)[O-])NC(=O)C(c2ccccc2)c2ccccc2)cc1 stands at 198 to 200 °C

For reference, reported melting point for CSC(C(=O)c1cc(-c2ccccc2)on1)N1CCCCC1 (stereo unspecified) stands at 113 to 115 °C

For reference, reported melting point for COC(=O)c1ccc(OCCC[Si](C)(C)C)cc1O stands at 32 to 33 °C

For reference, reported melting point for [N-]=[N+]=NC1(O)CC(n2cc(I)c(=O)[nH]c2=O)OC1CO (stereo unspecified) stands at 126 to 130 °C

For reference, reported melting point for OC[C@H]1C[C@@H](n2cnc3cc(Cl)c(Cl)cc32)[C@H](O)[C@@H]1O stands at 222 to 225 °C
